Attribution: patent US9546152B2

Molecular target: UniProt O43614
Sequence (O43614 whole entry): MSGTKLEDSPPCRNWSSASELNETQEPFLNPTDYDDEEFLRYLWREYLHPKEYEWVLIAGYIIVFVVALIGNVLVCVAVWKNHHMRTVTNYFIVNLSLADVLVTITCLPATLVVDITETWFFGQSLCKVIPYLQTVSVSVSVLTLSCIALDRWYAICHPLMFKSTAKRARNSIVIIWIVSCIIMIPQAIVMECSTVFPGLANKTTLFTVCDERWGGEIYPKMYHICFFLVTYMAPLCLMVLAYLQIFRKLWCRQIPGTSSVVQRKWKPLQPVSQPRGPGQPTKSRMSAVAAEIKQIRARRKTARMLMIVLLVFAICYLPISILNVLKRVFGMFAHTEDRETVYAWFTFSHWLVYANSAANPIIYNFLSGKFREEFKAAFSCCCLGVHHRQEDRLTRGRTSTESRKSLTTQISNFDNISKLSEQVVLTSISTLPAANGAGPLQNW
Assay: FLIPR Ca2+ Flux Assay, orexin-2 receptor
Assay type: cell-based
Settings: CHO cells expressing the human orexin-2 receptor; agonist 70 pM Ala-6,12 human orexin-A; read-out: hOX2R FLIPR IC50
Documented IC50 across a set of compounds
Report the value in µM with no unit label.

Below, each entry is followed by its recorded IC50 result.
Cc1c(C#N)ccnc1O[C@@H]1CC[C@@H](C)N(C(=O)c2cc(F)ncc2-c2cncs2)C1 : 0.043
Cc1c(C#N)ccnc1O[C@@H]1CC[C@@H](C)N(C(=O)c2ccc(OCF)nc2-n2nccn2)C1 : 0.058
Cc1c(C#N)ccnc1O[C@@H]1CC[C@@H](C)N(C(=O)c2ccsc2-c2nccs2)C1 : 0.029

Which IC50 value is on record for Cc1c(C#N)ccnc1O[C@@H]1CC[C@@H](C)N(C(=O)c2ccccc2C2CC2)C1 ?
0.009
